- Test system: SK-MEL-28 melanoma
- assay notes: NCI tumour cell line growth inhibition, 48 h
endpoint label: TGI

Example entries begin here.
O=C(CN=C(CN(c1ccccc1)c1ccccc1)Oc1c(Cl)cc(Cl)cc1Cl)N1c2ccccc2Sc2ccccc21: > 100 µM
CC(C)=CC(=O)c1[nH]c2ccccc2c1CC(=O)NCCc1cn(C(c2ccccc2)(c2ccccc2)c2ccccc2)cn1: 12.4 µM

I need TGI for every entry listed below, if you could help.
1. COc1cc(N2C(=O)C(=O)C3(CCCCC3)C2=O)cc(OC)c1OC
2. COC(=O)[C@](NC(=O)OCc1ccccc1)([C@@H](C)S(=O)c1ccc(C)cc1)C(F)(F)F (stereo partly drawn)
3. O=C1C=CC(=O)c2c1ccc1c3ccccc3n(CCCCCCCCn3c4ccccc4c4ccc5c(c43)C(=O)C=CC5=O)c21
4. O=C(Nc1ccc(-n2cc(-c3ccncc3)c(-c3ccc(O)c(Cl)c3)n2)cc1)c1cc(C(F)(F)F)cc(C(F)(F)F)c1
5. CCn1c2ccccc2c2cc(/C=C(/C#N)C(N)=S)ccc21

Result:
1: > 100 µM; 2: > 100 µM; 3: > 100 µM; 4: 23.3 µM; 5: 47.2 µM

I need TGI for every entry listed below, if you could help.
1. CN(NC(=O)/C(=C/c1ccc(Cl)cc1)NC(=O)c1ccccc1)c1cn[nH]c(=O)c1Cl
2. COc1cc(/C=C/C(=O)Oc2ccc(NC(C)=O)cc2)ccc1C(=O)OCc1ccccc1
3. COc1ccc2c(c1)[C@@H]1c3cc(OC)c(OC)cc3CCN1CCC2
4. Cc1cc(-n2c(/C=C/c3ccc(Cl)cc3)nc3cc(Cl)ccc3c2=O)on1
5. CCOC(=O)c1csc(CCCCCCc2nc(C(=O)OCC)cs2)n1
6. C[CH2][Sn]([CH2]C)([O]C(=O)c1cccc(OC)c1)[O][Sn]([CH2]C)([CH2]C)[O]C(=O)c1cccc(OC)c1

Result:
1. > 100 µM
2. > 100 µM
3. > 100 µM
4. > 50 µM
5. > 83.8 µM
6. 35.9 µM

----------
- Test system: MALME-3M melanoma
- assay notes: NCI tumour cell line growth inhibition, 48 h
Task for the reader: assign each of the following molecules its reported TGI.
Give bare numbers, in µM.

Example entries begin here.
O=C1C(Cl)C(c2cc(Br)cc(Br)c2O)N1n1cnc2ccccc2c1=O (centres undefined): 62.9
N#Cc1c(-c2ccc(Cl)cc2)csc1NC(=O)Nc1ccc(Cl)c(C(F)(F)F)c1: 3.94
CCC(O)CC1OC2(CCC1C)CC1OC(=O)/C=C\C(C)(O)C(O)C(C)C(O)C(OC3CC(OC)C(O)C(C)O3)C(O)C(C)(O)CCC/C=C/C3CC(C)COC3(O)CC(O2)C1C (centres undefined): 35.5

Then this molecule:
Ask: Provide the documented TGI with MALME-3M melanoma as the system for COc1ncc(-c2ccc3nccc(C#CCCCCC(=O)O)c3c2)cc1NS(=O)(=O)c1ccc(F)cc1F
Result: 0.916

----------
Task for the reader: assign each of the following compounds its reported TGI.
- Test system: SR leukemia
- assay notes: NCI tumour cell line growth inhibition, 48 h

Example entries begin here.
CC1(C)OC(=O)C(c2cccs2)C(=O)O1: > 100 µM
CC(=O)OC1CC2CC(=O)CC1N2C (configuration not stated): > 100 µM
CCOC(=O)C(C(CC(=O)OC)NC(=O)OCc1ccccc1)C1(C)OCCO1 (configuration not stated): > 100 µM
COc1cc(C2NCCC(c3ccccc3)(c3ccccc3)N2)cc(OC)c1OC (configuration not stated): > 100 µM
c1ccc(NNC2=NCCN2)cc1: > 100 µM
O=C(Nc1cccc(-n2ccc3c(NC(=O)c4ccccc4)nccc32)c1)Nc1ccc(Cl)c(C(F)(F)F)c1: > 23.3 µM

I need TGI for every entry listed below, if you could help.
1. COc1ncc(-c2ccc3nccc(C#CCCCCC(=O)O)c3c2)cc1NS(=O)(=O)c1ccc(F)cc1F
2. COc1ccc(C23OCC(Cc4cc(OC)c(OC)cc42)C3COC(C)=O)cc1OC (configuration not stated)
3. COc1cc(/C=C2/SC(c3ccccc3)N(c3cccc(NC(C)=O)c3)C2=O)cc(OC)c1OC (configuration not stated)
4. CCC1=C(C)C(=O)N/C1=C\c1[nH]c(C)c([C@H](C)CCN)c1C
5. C[C@]1(O)CC[C@H]2[C@@H]3CCc4cc(O)ccc4[C@H]3CC[C@@]21C

Result:
1: 44.1 µM; 2: > 100 µM; 3: > 100 µM; 4: > 100 µM; 5: 0.668 µM

I need TGI for every entry listed below, if you could help.
1. Cc1nn(C(=O)c2ccccc2O)c2c1C(c1ccccc1O)SC(N)=N2 (configuration not stated)
2. CC(C)=CCCC(C)[C@H]1CC(O)C2(C)C3=CCC4C(C)(C)[C@@H](O)CC[C@]4(C)C3=CC[C@]12C (some centres not stated)
3. N#Cc1c(-c2ccc([N+](=O)[O-])cc2)cc(-c2ccc(Nc3ccnc4cc(C(F)(F)F)ccc34)cc2)[nH]c1=O
4. O=C1c2ccccc2C(=O)N1C/C=N/NS(=O)(=O)c1ccc(F)cc1

Result:
["5.4 µM", "44.2 µM", "> 100 µM", "> 100 µM"]

I need TGI for every entry listed below, if you could help.
1. CC1=NCC[N+]1(CCc1ccccc1)Cc1ccccc1 (configuration not stated)
2. Cc1c(NC(=O)/C(=N/NC(=S)N=N)C2C(=O)CC(C)(C)CC2=O)c(O)c2ccccc2c1O
3. Nc1c(Br)cc2c(c1Br)Cc1cc(Br)ccc1-2
4. O=C1c2ccccc2C(=O)c2c1c(=O)c(=O)c1ccccc1c(=O)n2Cc1ccccc1

Result:
1: > 100 µM; 2: 14.9 µM; 3: > 100 µM; 4: > 100 µM

I need TGI for every entry listed below, if you could help.
1. CCOC(=O)Cc1csc(NC(=O)COC(=O)c2ccc(N)cc2)n1
2. CCOC(=O)NC(=O)c1cn(CCCOC(=O)CCCCCCCCC(=O)OCCCn2cc(C(=O)NC(=O)OCC)c(=O)n(C)c2=O)c(=O)n(C)c1=O

Result:
1. 45.2 µM
2. > 100 µM

I need TGI for every entry listed below, if you could help.
1. CCc1c(-c2ccc(OC)cc2)c(=O)oc2cc(O)ccc12
2. O=C1NC2c3c(I)sc(I)c3/C(=N\O)C2O1 (configuration not stated)
3. CC(/C=N/N(C)C1=NCCCN1)=N/N(C)C1=NCCCN1
4. CN(NC(=O)/C(=C/c1ccc(Cl)cc1)NC(=O)c1ccccc1)c1cn[nH]c(=O)c1Cl
5. Cc1cccc(C(C)(C)C)c1NC(=O)CCl
6. CC1(F)C=CC(=O)C=C1
7. COc1ccc([C@@H]2C[C@@H]3C(=O)OC(=O)[C@@H]3c3c2c2ccccc2n3C)cc1

Result:
1. 58.4 µM
2. > 100 µM
3. > 100 µM
4. > 100 µM
5. > 100 µM
6. > 100 µM
7. > 100 µM

I need TGI for every entry listed below, if you could help.
1. COc1cc(/C=C/C(=O)c2ccc(Nc3nc(Nc4ccc(F)cc4)nc(Nc4ccc(Cl)cc4)n3)cc2)cc(OC)c1OC
2. COc1cccc2c1C(=O)c1c(O)c3c(c(O)c1C2=O)CC(O)(/C(C)=N/NC(=O)CCCCC(=O)N/N=C(\C)C1(O)Cc2c(O)c4c(c(O)c2C(OC2CC(N)C(O)C(C)O2)C1)C(=O)c1c(OC)cccc1C4=O)CC3OC1CC(N)C(O)C(C)O1 (configuration not stated)

Result:
1. 3.74 µM
2. 0.0365 µM

I need TGI for every entry listed below, if you could help.
1. Cc1ccc(/C(=N/NS(=O)(=O)c2ccc([N+](=O)[O-])cc2)Sc2cc(Cl)c(C)cc2S(N)(=O)=O)cc1
2. COc1ccc(/C=C/c2nsc(/C=C/c3ccc(OC)cc3)n2)cc1
3. CCC1CC(C)C(O)/C=C/C=C/CC(C)OC(=O)CC(O)C(OC)C1OC1OC(C)CC(O)(C(C)=O)C1O (configuration not stated)
4. CCN(C(=N)C#N)c1ccccc1

Result:
1. > 100 µM
2. > 100 µM
3. 59.8 µM
4. > 100 µM

I need TGI for every entry listed below, if you could help.
1. COc1cc(N2C(=O)C(=O)C3(CCCCC3)C2=O)cc(OC)c1OC
2. N#C/C(=C\c1cn(Cc2ccccc2)c2ccccc12)C(=O)Nc1ncc(Cc2ccccc2Cl)s1
3. Cn1c(=O)n(CCCO)c(=O)c2c1nc(Oc1cccc(OC(F)(F)F)c1)n2Cc1ccc(Cl)cc1

Result:
["> 100 µM", "3.58 µM", "18.2 µM"]

----------
- Test system: HT29 colon
- assay notes: NCI tumour cell line growth inhibition, 48 h
endpoint label: TGI

Example entries begin here.
O=C1C=CC(=O)c2c(O)c(N3CCN(c4ccccn4)CC3)c(Cl)c(O)c21: 2.05 µM
COc1cc(/C=C/C(=O)Oc2ccc(NC(C)=O)cc2)ccc1C(=O)OCc1ccccc1: > 100 µM
Cc1cccc2c1CC(C1OC(=O)c3ccccc31)C2=O (stereo not given): > 100 µM
CN(NC(=O)/C(=C/c1ccc(Cl)cc1)NC(=O)c1ccccc1)c1cn[nH]c(=O)c1Cl: > 100 µM
C=C1c2c(C)nn(-c3ccc(OC)cc3)c2N(C)C23C[C@@H]1C1(C)c4c(C)nn(-c5ccc(OC)cc5)c4N(C)C(C)(C[C@H]12)C3 (stereo not given in full): > 100 µM
CCOC(=O)/C=C/C1=C(c2ccsc2)c2ccc(OC)cc2CC1: > 41.4 µM

I need TGI for every entry listed below, if you could help.
1. N#CC[C@@H](O)COc1ccccc1
2. CCC1CC(C)C(O)/C=C/C=C/CC(C)OC(=O)CC(O)C(OC)C1OC1OC(C)CC(O)(C(C)=O)C1O (stereo not given)
3. COC1=CC(=O)c2c(ccc3ncnc(N)c23)C1=O
4. COc1cccc(/C=C/c2ccc(S(N)(=O)=O)cc2)c1
5. COc1cccc2c1C(=O)c1c(O)c3c(c(O)c1C2=O)CC(O)(/C(C)=N/NC(=O)CCCCC(=O)N/N=C(\C)C1(O)Cc2c(O)c4c(c(O)c2C(OC2CC(N)C(O)C(C)O2)C1)C(=O)c1c(OC)cccc1C4=O)CC3OC1CC(N)C(O)C(C)O1 (stereo not given)
6. CC1(C)OC(=O)C(c2cccs2)C(=O)O1
7. O=C1C(Cl)C(c2cc(Br)cc(Br)c2O)N1n1cnc2ccccc2c1=O (stereo not given)
8. CC(C)=CCCC(C)[C@H]1CC(O)C2(C)C3=CCC4C(C)(C)[C@@H](O)CC[C@]4(C)C3=CC[C@]12C (stereo not given in full)

Result:
["> 100 µM", "> 100 µM", "4.44 µM", "> 100 µM", "> 50 µM", "> 100 µM", "> 100 µM", "14.6 µM"]

I need TGI for every entry listed below, if you could help.
1. Cc1nn(C(=O)c2ccccc2O)c2c1C(c1ccccc1O)SC(N)=N2 (stereo not given)
2. COc1ccc(C23OCC(Cc4cc(OC)c(OC)cc42)C3COC(C)=O)cc1OC (stereo not given)
3. CC(C)/C(Cl)=N\OC(=O)Nc1ccc(F)cc1
4. O=Cc1c(O)ccc2ccc(O)c(-c3c(O)ccc4ccc(O)cc34)c12
5. Sc1ccccc1S

Result:
> 10 µM
> 100 µM
4.6 µM
> 100 µM
> 100 µM

Ask: Could you share which TGI value was measured for Cc1ccc(NC(=O)/C(CC2N=c3c(ccc4c(O)c5ccccc5c(O)c34)=NC2O)=N/NC(C)(C)C)cc1 (stereo not given) ?
Result: 43 µM
